- SYSTEM TESTED: Kappa-type opioid receptor (Homo sapiens)
- Sequence (P41145 whole entry): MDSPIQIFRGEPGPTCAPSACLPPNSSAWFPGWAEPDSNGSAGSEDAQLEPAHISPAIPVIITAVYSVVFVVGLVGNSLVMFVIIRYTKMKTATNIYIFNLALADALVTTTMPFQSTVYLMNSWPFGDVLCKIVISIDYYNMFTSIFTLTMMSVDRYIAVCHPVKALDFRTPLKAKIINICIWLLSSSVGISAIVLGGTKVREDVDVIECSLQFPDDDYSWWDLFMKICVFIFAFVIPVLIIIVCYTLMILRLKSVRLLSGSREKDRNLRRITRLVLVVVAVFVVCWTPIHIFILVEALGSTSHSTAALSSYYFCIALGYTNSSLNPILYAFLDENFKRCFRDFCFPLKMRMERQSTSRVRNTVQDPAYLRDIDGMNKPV
- TEST SUMMARY: Displacement of [3H]U69,593 from human kappa opioid receptor expressed in CHO cells by scintillation counting analysis
- Assay type: cell-based
pKi: −log10 of the molar value.
# pKi >= 8 gives true (1), anything below gives false (0)

Example results:
>>> print(df.to_string())
                            smiles_notation                             system_tested  category_label
0  Oc1ccc2c3c1O[C@H]1c4ncc(-c5ccc(Cl)cc5)cc4C[C@@]4(OC/C=C/c5ccccc5)[C@@H](C2)N(CC2CC2)CC[C@]314  Kappa-type opioid receptor (Homo sapiens)        true (1)
1  CN1CC[C@]23c4c5ccc(O)c4O[C@H]2c2ncc(-c4ccc(Cl)cc4)cc2C[C@@]3(OC(=O)c2ccccc2)[C@H]1C5  Kappa-type opioid receptor (Homo sapiens)       false (0)
2  CN1CC[C@]23c4c5ccc(O)c4O[C@H]2c2ncc(-c4ccc(Cl)cc4)cc2C[C@@]3(OC/C=C/c2ccccc2)[C@H]1C5  Kappa-type opioid receptor (Homo sapiens)        true (1)

Exam item: Decide: pKi of "CN1CC[C@]23c4c5ccc(O)c4O[C@H]2c2ncc(-c4ccc(Cl)cc4)cc2C[C@@]3(OC(=O)CCc2ccccc2)[C@H]1C5" >= 8?
Marked response: true (1)

Exam item: Decide: pKi of "Oc1ccc2c3c1O[C@H]1c4ncc(-c5ccc(Cl)cc5)cc4C[C@@]4(OCc5ccccc5)[C@@H](C2)N(CC2CC2)CC[C@]314" >= 8?
Marked response: true (1)

====

- SYSTEM TESTED: Delta-type opioid receptor (Homo sapiens)
- Sequence (P41143 whole entry): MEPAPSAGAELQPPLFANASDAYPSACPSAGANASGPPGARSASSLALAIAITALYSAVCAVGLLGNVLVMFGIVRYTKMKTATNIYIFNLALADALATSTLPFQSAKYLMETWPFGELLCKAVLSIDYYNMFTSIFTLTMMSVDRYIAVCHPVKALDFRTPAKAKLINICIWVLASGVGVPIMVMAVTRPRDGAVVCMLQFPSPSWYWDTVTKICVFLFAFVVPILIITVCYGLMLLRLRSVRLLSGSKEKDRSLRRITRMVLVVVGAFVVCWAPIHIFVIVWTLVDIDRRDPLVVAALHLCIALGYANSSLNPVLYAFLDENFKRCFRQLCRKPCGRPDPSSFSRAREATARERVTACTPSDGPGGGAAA
- TEST SUMMARY: Binding affinity to delta opioid receptor by radioligand binding assay
pKi by entry:
Keep in mind that pKi stands for -log10 of concentration in molar terms.

>>> print(df.to_string())
                            smiles_notation  measured_number
0  CN1CC[C@]23c4c5ccc(O)c4O[C@H]2c2ncc(-c4ccc(Cl)cc4)cc2C[C@@]3(O)[C@H]1C5             8.41

Exam item: Could you share what pKi was measured for "Oc1ccc2c3c1O[C@H]1c4ncc(-c5ccc(Cl)cc5)cc4C[C@@]4(O)[C@@H](C2)N(CC2CC2)CC[C@]314" , tested on Delta-type opioid receptor (Homo sapiens)?
Marked response: 8.66

====

Ratio Ki by entry:
- Species: Homo sapiens
- TEST SUMMARY: Selectivity ratio of Ki for human kappa opioid receptor to Ki for human delta opioid receptor

// solved cases for Ratio Ki follow
In [3]: df
Out[3]:
                            smiles_notation  result
0  CN1CC[C@]23c4c5ccc(O)c4O[C@H]2c2ncc(-c4ccc(Cl)cc4)cc2C[C@@]3(OC/C=C/c2ccccc2)[C@H]1C5     1.4
1  Oc1ccc2c3c1O[C@H]1c4ncc(-c5ccc(Cl)cc5)cc4C=C4[C@@H](C2)N(CC2CC2)CC[C@]431     2.2

Exam item: Please report the recorded Ratio Ki for "CO[C@@]12Cc3cc(-c4ccc(Cl)cc4)cnc3[C@@H]3Oc4c(O)ccc5c4[C@@]31CCN(C)[C@@H]2C5" .
Marked response: 17

Exam item: Please report the recorded Ratio Ki for "O=C(CCc1ccccc1)O[C@@]12Cc3cc(-c4ccc(Cl)cc4)cnc3[C@@H]3Oc4c(O)ccc5c4[C@@]31CCN(CC1CC1)[C@@H]2C5" .
Marked response: 2.9
